Data provenance is the RNAGym collection of RNA variant scans (doi:10.1101/gad.245936.114).

B1: tRNA (parent)
chain: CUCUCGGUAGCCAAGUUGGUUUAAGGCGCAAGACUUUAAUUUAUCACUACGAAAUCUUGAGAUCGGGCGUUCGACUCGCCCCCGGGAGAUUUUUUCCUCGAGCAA

- Variants of: B1
- experiment: nonsense suppression (GFP-seq) (ratio to wild type); higher = more function; SUP4oc tRNA, yeast GFP reporter sort-seq
Fewer inactive variants are shown than the library holds.
readoutLabel: nonsense suppression
Reply with the value as a number alone.

Look up nonsense suppression for this variant: C82A G85U
0.0445

Look up nonsense suppression for this variant: U4C C12U
0.745

Look up nonsense suppression for this variant: U16G A60G
0.39

Look up nonsense suppression for this variant: U63C C81U
0.142

Look up nonsense suppression for this variant: G78A A87G
0.294

Look up nonsense suppression for this variant: U16C U63C
1.11

Look up nonsense suppression for this variant: A13U U21G
0.763
